- System: RARb:RXRa (NR concentration 270 nM, RXRa partner concentration 90 nM)
- runDescription: PBM binding z-score (relative to random genomic background probes); higher = stronger binding; sequences stand for … in GC…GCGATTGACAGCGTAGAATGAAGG
parameter: PBM binding z-score
Provide a numeric answer; units are not to be included.

Look over these answered cases.
itemsequence=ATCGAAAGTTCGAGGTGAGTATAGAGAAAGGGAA measvalue=2.53
itemsequence=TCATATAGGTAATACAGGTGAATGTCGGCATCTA measvalue=0.634
itemsequence=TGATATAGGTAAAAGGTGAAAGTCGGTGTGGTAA measvalue=2.05
itemsequence=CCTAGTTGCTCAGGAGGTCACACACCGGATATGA measvalue=3.64
itemsequence=TCTTGTAGATCAACACGAGGTTAAGAAAGATCGA measvalue=0.536

Looking up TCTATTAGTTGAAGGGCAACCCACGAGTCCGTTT , I see its PBM binding z-score listed as 1.65

Looking up CGTCCAAGGTCAAAGCTCAGTGAAGAGATGACGG , I see its PBM binding z-score listed as 5.14

Looking up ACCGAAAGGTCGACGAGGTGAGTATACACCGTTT , I see its PBM binding z-score listed as 4.19

Looking up ATATGTAAGTTAAGGGTCATTCAGGTTGGTTCGC , I see its PBM binding z-score listed as 3.42

====

- Test system: RXRa homodimer (NR concentration 180 nM)
- runDescription: PBM binding z-score (relative to random genomic background probes); higher = stronger binding; sequences stand for … in GC…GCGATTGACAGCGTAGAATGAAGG
parameter: PBM binding z-score
Provide a numeric answer; units are not to be included.

Look over these answered cases.
itemsequence=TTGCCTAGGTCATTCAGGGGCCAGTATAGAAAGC assayedtarget="RXRa homodimer (NR concentration 180 nM)" measvalue=2.76
itemsequence=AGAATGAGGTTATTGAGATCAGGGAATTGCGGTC assayedtarget="RXRa homodimer (NR concentration 180 nM)" measvalue=2.16
itemsequence=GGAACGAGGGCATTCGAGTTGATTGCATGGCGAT assayedtarget="RXRa homodimer (NR concentration 180 nM)" measvalue=0.842
itemsequence=TCATGTAGATCAAGCAGGTTAAGAAAGCCTGAGT assayedtarget="RXRa homodimer (NR concentration 180 nM)" measvalue=0.48
itemsequence=TCTAGATGGTCAAAGGTCACACACTCGAAATGCG assayedtarget="RXRa homodimer (NR concentration 180 nM)" measvalue=8.64
itemsequence=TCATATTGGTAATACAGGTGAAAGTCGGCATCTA assayedtarget="RXRa homodimer (NR concentration 180 nM)" measvalue=0.917

Looking up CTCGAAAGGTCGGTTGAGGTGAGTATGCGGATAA , I see its PBM binding z-score listed as 2.4

Looking up CCTAGTTGGTCAGGAGTTCACACACCGGATATGA , I see its PBM binding z-score listed as 2.32

Looking up ATCGAAAGGTCGTGAGGTGAGTATACAGAAAGGC , I see its PBM binding z-score listed as 4.97

Looking up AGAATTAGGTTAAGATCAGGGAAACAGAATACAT , I see its PBM binding z-score listed as 0.853

Looking up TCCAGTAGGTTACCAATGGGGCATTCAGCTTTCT , I see its PBM binding z-score listed as 0.815

Looking up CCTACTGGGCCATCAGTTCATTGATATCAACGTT , I see its PBM binding z-score listed as -0.0335

Looking up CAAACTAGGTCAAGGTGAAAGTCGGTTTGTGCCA , I see its PBM binding z-score listed as 2.82

Looking up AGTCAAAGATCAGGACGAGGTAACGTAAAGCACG , I see its PBM binding z-score listed as 0.431

Looking up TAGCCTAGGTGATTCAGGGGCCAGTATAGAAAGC , I see its PBM binding z-score listed as -0.089

Looking up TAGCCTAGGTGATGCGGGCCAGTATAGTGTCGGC , I see its PBM binding z-score listed as -0.304
